System: Human alphaherpesvirus 3
Assay: Evaluated for the anti-VZV, the concentration of compounds in uM required to reduce VZVTK-07 ( thymidine kinase-deficient strain ) plaque formation after 5 days in HEL cell cultures compared to untreated controls.
Format: functional, organism-based
Details: Human alphaherpesvirus 3, tk-07, HEL, 120 h
pEC50: −log10 of the molar value.
readoutType: pEC50

>>> resultvalue("CCCCCCCCCc1cc2cn([C@H]3C[C@H](O)[C@@H](CO)O3)c(=O)nc2o1")
"< 3.70"
>>> resultvalue("O=c1nc2oc(-c3ccc(Br)cc3)cc2cn1[C@H]1C[C@H](O)[C@@H](CO)O1")
"< 4.30"
>>> resultvalue("O=c1nc2oc(-c3ccc(Cl)cc3)cc2cn1[C@H]1C[C@H](O)[C@@H](CO)O1")
"< 4.30"
>>> resultvalue("O=c1[nH]c(=O)n([C@H]2C[C@H](O)[C@@H](CO)O2)cc1/C=C/Br")
"< 3.82"
>>> resultvalue("CCCCCCCCc1ccc(-c2cc3cn([C@H]4C[C@H](O)[C@@H](CO)O4)c(=O)nc3o2)cc1")
"< 4.70"
>>> resultvalue("CCCCCCCCc1cc2cn([C@H]3C[C@H](O)[C@@H](CO)O3)c(=O)nc2o1")
"< 4.30"
>>> resultvalue("CCCCCCCCCCc1cc2cn([C@H]3C[C@H](O)[C@@H](CO)O3)c(=O)nc2o1")
"< 4.30"

* * *

This section presents compounds with their documented EC50 values.
System: Human alphaherpesvirus 3
Assay: Evaluated for the anti-VZV, the concentration of compounds in uM required to reduce VZVTK-YS-R ( thymidine kinase-deficient strain ) plaque formation after 5 days in HEL cell cultures compared to untreated controls.
Type: functional, organism-based
Settings: Human alphaherpesvirus 3, tkys-r, 120 h
readoutType: EC50

>>> resultvalue("CCCCCCCCCCc1cc2cn([C@H]3C[C@H](O)[C@@H](CO)O3)c(=O)nc2o1")
"> 50 µM"
>>> resultvalue("O=c1[nH]c(=O)n([C@H]2C[C@H](O)[C@@H](CO)O2)cc1/C=C/Br [BRIVUDINE]")
"> 150 µM"
>>> resultvalue("CCCCCCCCc1ccc(-c2cc3cn([C@H]4C[C@H](O)[C@@H](CO)O4)c(=O)nc3o2)cc1")
"> 20 µM"
>>> resultvalue("O=c1nc2oc(-c3ccc(Cl)cc3)cc2cn1[C@H]1C[C@H](O)[C@@H](CO)O1")
"> 50 µM"
>>> resultvalue("CCCCCCCCc1cc2cn([C@H]3C[C@H](O)[C@@H](CO)O3)c(=O)nc2o1")
"> 50 µM"
>>> resultvalue("O=c1nc2oc(-c3ccc(Br)cc3)cc2cn1[C@H]1C[C@H](O)[C@@H](CO)O1")
"> 50 µM"
>>> resultvalue("CCCCCCCCCc1cc2cn([C@H]3C[C@H](O)[C@@H](CO)O3)c(=O)nc2o1")
"> 200 µM"

* * *

Tested on: Human alphaherpesvirus 3
Test: Evaluated for the anti-VZV activity, the concentration of compounds in uM required to reduce VZV […] plaque formation after 5 days in HEL cell cultures compared to untreated controls.
Format: functional, organism-based
Conditions: Human alphaherpesvirus 3, ys, 120 h
readoutType: EC50 (µM)

>>> resultvalue("CCCCCCCCCCc1cc2cn([C@H]3C[C@H](O)[C@@H](CO)O3)c(=O)nc2o1")
0.008
>>> resultvalue("CCCCCCCCc1cc2cn([C@H]3C[C@H](O)[C@@H](CO)O3)c(=O)nc2o1")
0.024
>>> resultvalue("O=c1nc2oc(-c3ccc(Br)cc3)cc2cn1[C@H]1C[C@H](O)[C@@H](CO)O1")
0.5
>>> resultvalue("O=c1nc2oc(-c3ccc(Cl)cc3)cc2cn1[C@H]1C[C@H](O)[C@@H](CO)O1")
0.1
>>> resultvalue("CCCCCCCCCc1cc2cn([C@H]3C[C@H](O)[C@@H](CO)O3)c(=O)nc2o1")
0.02
>>> resultvalue("O=c1[nH]c(=O)n([C@H]2C[C@H](O)[C@@H](CO)O2)cc1/C=C/Br [BRIVUDINE]")
0.003
>>> resultvalue("CCCCCCCCc1ccc(-c2cc3cn([C@H]4C[C@H](O)[C@@H](CO)O4)c(=O)nc3o2)cc1")
0.027
